Data origin: the RNAGym collection of RNA variant scans (doi:10.1093/molbev/msab373)

B1: Azoarcus group I ribozyme (parent)
chain: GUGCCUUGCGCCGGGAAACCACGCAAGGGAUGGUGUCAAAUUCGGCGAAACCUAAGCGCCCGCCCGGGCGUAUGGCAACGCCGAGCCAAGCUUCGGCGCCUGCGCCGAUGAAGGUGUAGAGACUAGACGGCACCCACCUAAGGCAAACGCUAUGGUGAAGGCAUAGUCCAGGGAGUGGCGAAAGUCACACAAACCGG

- Variants of: B1
- assay details: reverse-splicing fitness (ratio to wild type); higher = more active; in vitro selection; Mg2+ level not given
result type: reverse-splicing fitness
Lab note: jot the number down without any unit.

Example entries begin here.
| variant string | reverse-splicing fitness |
| --- | --- |
| A111C A120C C169U U176C | 0.0446 |
| A111C A120G A145G C169U U176G | 0.00448 |
| C82A A111U A145U C150U C169U U176G | 0.00717 |
| C82A A111G A120U A145C C169A | 0.00203 |
| C82G A145C C150U U176G | 0.0373 |

Problem: Please report the recorded reverse-splicing fitness for C82G A111U A120C C169G U176A .
Result: 0.0203

Problem: Please report the recorded reverse-splicing fitness for A120C A145C C150U .
Result: 0.46

Problem: Please report the recorded reverse-splicing fitness for A120U A145G C150U C169G .
Result: 0.199

Problem: Please report the recorded reverse-splicing fitness for C82A A111G A120C A145U C150G C169A U176A .
Result: 0.011

Problem: Please report the recorded reverse-splicing fitness for C82G A145G U176G .
Result: 0.133

Problem: Please report the recorded reverse-splicing fitness for A120U C150G C169U U176G .
Result: 0.00276

Problem: Please report the recorded reverse-splicing fitness for C82G A111C A120U A145G C169A .
Result: 0.00335

Problem: Please report the recorded reverse-splicing fitness for C82U A120U A145C C150A U176C .
Result: 0.00532
